Data credit: PubChem BioAssay (NCATS)

Target system: Cytochrome P450 2C19 (Homo sapiens)
Protocol details: qHTS Assay for Inhibitors and Substrates of Cytochrome P450 2C19 (AID 899); note: % is set by controls: 0 for no effect and ±100 for the full control effect; nearly all actives have a fitted effect of over 60% in size
Test context: recombinant CYP2C19, luciferin-H EGE luminescence; series mostly up to 57.1 µM
Inconclusive results are not listed. Calls of active or inactive are those of the source. Calls come from the whole dose curve; as a rule, active = well fitted inhibition curve with a large enough effect; inconclusive = small, poorly fitted or top-dose-only effect; inactive = no such curve, though single readings can be large or run the other way.
Record form. Attribute: activity, negative = inhibition. Fill in for each entry.

Some compounds with known activity, negative = inhibition results, for comparison:
Compound: CN1CCc2nc(CO)c(CO)cc2C1
activity, negative = inhibition: 81.3% [at 11.4 µM] (inactive)
--
Compound: c1ccc(-c2cc3c(nc2-c2ccccc2)CCNC3)cc1
activity, negative = inhibition: 24.9% [at 11.4 µM] (inactive)

Continue with the compound presented below.
Ask: If you can, please state the reported activity, negative = inhibition value of CC1Cc2c(cnc3c2CN(C)CC3)CO1 (stereo not drawn) .
Reply: 9.03% [at 11.4 µM] (inactive)
